Each recorded value in this set is attributed to patent US3991204A.

Overview of reported inhibition in vivo at 0.1 % across a group of molecules:
# Test system: Nematospiroides dubius
# testProtocol: Efficacy against Nematospiroides dubius in mice (worm count in treated mice versus control average)
# Format: in vivo, Nematospiroides dubius (host: Swiss Webster mice)
# measurementContext: Heligmosomoides polygyrus, po, 168 h, drug diet 0.1% for 7 days, read-out: % Eff. N.d.

Worked examples, 7 molecules total:
- molecule: "O=C(Nc1cccc(Cl)c1)c1c(O)c2ccccc2oc1=O [Example 2]"
  inhibition in vivo at 0.1 %: "65%"
- molecule: "O=C(Nc1cccc(F)c1)c1c(O)c2ccccc2oc1=O [Example 4]"
  inhibition in vivo at 0.1 %: "77%"
- molecule: "O=C(Nc1ccc(F)cc1)c1c(O)c2ccccc2oc1=O [Example 3]"
  inhibition in vivo at 0.1 %: "54%"
- molecule: "O=C(Nc1ccccc1F)c1c(O)c2ccccc2oc1=O [Example 5]"
  inhibition in vivo at 0.1 %: "66%"
- molecule: "O=C(Nc1ccc(Cl)c(Cl)c1)c1c(O)c2ccccc2oc1=O [Example 1]"
  inhibition in vivo at 0.1 %: "100%"
- molecule: "O=C(Nc1cc(F)ccc1F)c1c(O)c2ccccc2oc1=O [Example 7]"
  inhibition in vivo at 0.1 %: "41%"
- molecule: "O=C(Nc1ccc(Cl)cc1Cl)c1c(O)c2ccccc2oc1=O [Example 8]"
  inhibition in vivo at 0.1 %: "100%"

Now for the molecule whose inhibition in vivo at 0.1 % we want.
inhibition in vivo at 0.1 % for O=C(Nc1ccc(F)cc1F)c1c(O)c2ccccc2oc1=O [Example 6] is 94%
